- Tested on: pinch skin graft from male DBA/2 donors transplanted to male BALB/c recipients
- procedure-summary: survival time of pinch skin graft
- Assay type: in vivo
- test-settings: intraperitoneally; mean ± SD
Measured Skin Graft (days + SD), mean graft survival time accompanies every entry in the list below.
parameter-measured: Skin Graft (days + SD), mean graft survival time (days)

INSERT INTO assay_data (mol_smiles, scale_unit, value) VALUES
  ('CO[C@H]1C[C@@H]2CC[C@@H](C)[C@@](O)(O2)C(=O)C(=O)N2CCCC[C@H]2C(=O)O[C@H]([C@H](C)C[C@@H]2CC[C@@H](OC(=O)[C@H](CCC(=O)OC(C)(C)C)NC(=O)OC(C)(C)C)[C@H](OC)C2)CC(=O)[C@H](C)/C=C(\C)[C@@H](OC(=O)[C@H](CCC(=O)OC(C)(C)C)NC(=O)OC(C)(C)C)[C@@H](OC)C(=O)[C@H](C)C[C@H](C)/C=C/C=C/C=C/1C', 'days', 8.8),
  ('CO[C@H]1C[C@@H]2CC[C@@H](C)[C@@](O)(O2)C(=O)C(=O)N2CCCC[C@H]2C(=O)O[C@H]([C@H](C)C[C@@H]2CC[C@@H](O)[C@H](OC)C2)CC(=O)[C@H](C)/C=C(\C)[C@@H](O)[C@@H](OC)C(=O)[C@H](C)C[C@H](C)/C=C/C=C/C=C/1C', 'days', 12.0),
  ('CO[C@H]1C[C@@H]2CC[C@@H](C)[C@@](O)(O2)C(=O)C(=O)N2CCCC[C@H]2C(=O)O[C@H]([C@H](C)C[C@@H]2CC[C@@H](OC(=O)[C@H](CCCCNC(=O)OC(C)(C)C)NC(=O)OC(C)(C)C)[C@H](OC)C2)CC(=O)[C@H](C)/C=C(\C)[C@@H](OC(=O)[C@H](CCCCNC(=O)OC(C)(C)C)NC(=O)OC(C)(C)C)[C@@H](OC)C(=O)[C@H](C)C[C@H](C)/C=C/C=C/C=C/1C', 'days', 7.0),
  ('CO[C@H]1C[C@@H]2CC[C@@H](C)[C@@](O)(O2)C(=O)C(=O)N2CCCC[C@H]2C(=O)O[C@H]([C@H](C)C[C@@H]2CC[C@@H](OC(=O)CNC(=O)CNC(=O)OC(C)(C)C)[C@H](OC)C2)CC(=O)[C@H](C)/C=C(\C)[C@@H](O)[C@@H](OC)C(=O)[C@H](C)C[C@H](C)/C=C/C=C/C=C/1C', 'days', 12.0),
  ('CO[C@H]1C[C@@H]2CC[C@@H](C)[C@@](O)(O2)C(=O)C(=O)N2CCCC[C@H]2C(=O)O[C@H]([C@H](C)C[C@@H]2CC[C@@H](OC(=O)[C@H](CCC(=O)OC(C)(C)C)NC(=O)OC(C)(C)C)[C@H](OC)C2)CC(=O)[C@H](C)/C=C(\C)[C@@H](O)[C@@H](OC)C(=O)[C@H](C)C[C@H](C)/C=C/C=C/C=C/1C', 'days', 11.5),
  ('CO[C@H]1C[C@@H]2CC[C@@H](C)[C@@](O)(O2)C(=O)C(=O)N2CCCC[C@H]2C(=O)O[C@H]([C@H](C)C[C@@H]2CC[C@@H](OC(=O)[C@H](CCCCNC(=O)OC(C)(C)C)NC(=O)OC(C)(C)C)[C@H](OC)C2)CC(=O)[C@H](C)/C=C(\C)[C@@H](O)[C@@H](OC)C(=O)[C@H](C)C[C@H](C)/C=C/C=C/C=C/1C', 'days', 12.0);

// data source = patent US5130307A
